Collected IC50 values appear next to each entry.
- MEASUREMENT_TARGET: complex formed between CRBN/DDB1 and pomalidomide (UniProt Q96SW2 1-442; Q16531 2-1140)
- Sequence (Q96SW2 whole entry, chain 1 of 2): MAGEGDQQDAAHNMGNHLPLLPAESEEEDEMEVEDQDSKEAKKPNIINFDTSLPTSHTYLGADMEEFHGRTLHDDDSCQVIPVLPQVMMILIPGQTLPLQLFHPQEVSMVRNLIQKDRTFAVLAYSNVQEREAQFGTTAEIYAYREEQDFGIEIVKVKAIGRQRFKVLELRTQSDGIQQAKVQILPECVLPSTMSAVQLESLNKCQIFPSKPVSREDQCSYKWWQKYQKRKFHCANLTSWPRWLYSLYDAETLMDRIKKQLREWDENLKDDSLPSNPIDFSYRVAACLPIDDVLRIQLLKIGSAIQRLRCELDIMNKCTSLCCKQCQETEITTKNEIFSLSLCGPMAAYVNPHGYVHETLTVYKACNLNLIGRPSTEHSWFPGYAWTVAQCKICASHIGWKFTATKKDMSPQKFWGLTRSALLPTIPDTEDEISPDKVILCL
- Sequence (Q16531 2-1140, chain 2 of 2): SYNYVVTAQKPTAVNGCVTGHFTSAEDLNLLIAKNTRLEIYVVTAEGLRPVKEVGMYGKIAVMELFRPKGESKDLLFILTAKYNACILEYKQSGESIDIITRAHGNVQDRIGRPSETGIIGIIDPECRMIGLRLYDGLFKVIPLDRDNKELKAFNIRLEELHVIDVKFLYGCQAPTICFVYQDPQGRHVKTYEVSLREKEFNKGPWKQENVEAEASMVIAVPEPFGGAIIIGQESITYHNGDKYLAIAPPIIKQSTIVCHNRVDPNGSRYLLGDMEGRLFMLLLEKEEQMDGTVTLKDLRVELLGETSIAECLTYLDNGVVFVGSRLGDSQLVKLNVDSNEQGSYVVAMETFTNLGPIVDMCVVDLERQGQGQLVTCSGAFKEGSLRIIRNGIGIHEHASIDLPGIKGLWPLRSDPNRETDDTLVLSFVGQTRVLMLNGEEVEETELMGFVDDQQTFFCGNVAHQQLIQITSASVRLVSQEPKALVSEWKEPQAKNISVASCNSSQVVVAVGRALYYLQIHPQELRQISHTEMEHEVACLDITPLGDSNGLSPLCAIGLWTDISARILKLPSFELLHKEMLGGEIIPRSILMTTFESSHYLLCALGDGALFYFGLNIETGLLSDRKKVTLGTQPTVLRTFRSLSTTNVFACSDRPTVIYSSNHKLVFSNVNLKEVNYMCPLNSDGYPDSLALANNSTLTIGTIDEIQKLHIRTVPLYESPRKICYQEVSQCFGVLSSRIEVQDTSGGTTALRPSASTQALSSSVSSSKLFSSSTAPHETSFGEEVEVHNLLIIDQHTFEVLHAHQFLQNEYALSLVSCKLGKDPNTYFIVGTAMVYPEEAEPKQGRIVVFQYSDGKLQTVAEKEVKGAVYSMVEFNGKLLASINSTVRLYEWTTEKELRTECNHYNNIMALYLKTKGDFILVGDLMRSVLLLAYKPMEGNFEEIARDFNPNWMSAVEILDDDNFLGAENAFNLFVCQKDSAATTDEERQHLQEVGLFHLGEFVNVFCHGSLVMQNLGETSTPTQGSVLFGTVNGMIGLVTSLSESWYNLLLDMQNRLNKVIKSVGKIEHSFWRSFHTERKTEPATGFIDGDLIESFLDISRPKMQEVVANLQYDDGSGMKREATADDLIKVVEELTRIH
- MEASUREMENT_PROTOCOL: TR-FRET displacement; pomalidomide

iTAG1 (DCD23) (designed binder) PNVLMVHKRSHTGERPLQCEICGFTCRQKGNLLRHIKLHSGEKPFKCHLCNYACRRRDAL; 0.0498 µM

Attention now shifts to the item below.
(Q) Recorded IC50 of iTAG2 (DCD23mut) (designed binder) PNVLMVHNESHTGEIPLQCEICGFTCEQAGNLLNHIELHSGEIPFKCHLCNYACRRRDAL , please.
(A) 0.834 µM
